// provenance: patent US20240376084A1

IC50 values, listed per item
# study_system: hemolysin alpha from Staphylococcus aureus (Staphylococcus aureus)
# Sequence (P09616 27-319 limits assumed): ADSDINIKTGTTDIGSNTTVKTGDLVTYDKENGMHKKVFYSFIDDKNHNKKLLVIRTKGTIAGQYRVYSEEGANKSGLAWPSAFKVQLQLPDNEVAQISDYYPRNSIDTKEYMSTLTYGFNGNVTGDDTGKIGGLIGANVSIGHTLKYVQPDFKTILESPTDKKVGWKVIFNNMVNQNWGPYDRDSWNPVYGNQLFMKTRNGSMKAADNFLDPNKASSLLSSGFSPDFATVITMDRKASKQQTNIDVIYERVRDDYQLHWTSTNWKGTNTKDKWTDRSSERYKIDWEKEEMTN

Below are worked cases with known answers.
>  <smi>
Cc1cc2[nH]c(=O)c(=O)[nH]c2cc1S(=O)(=O)Nc1ccc(-c2cccnc2)c(Cl)c1

>  <IC50>
< 30 nM

$$$$
>  <smi>
CCCc1ccc(NS(=O)(=O)c2cc3[nH]c(=O)c(=O)[nH]c3cc2Br)cc1

>  <IC50>
30 to 100 nM

$$$$
>  <smi>
Cc1cc2[nH]c(=O)c(=O)[nH]c2cc1S(=O)(=O)Nc1ccc(-c2ccncc2)c(Cl)c1

>  <IC50>
< 30 nM

$$$$

Now look at this one.
Consider the compound `Cc1cc2[nH]c(=O)c(=O)[nH]c2cc1S(=O)(=O)Nc1ccc2ncccc2c1` . State its measured IC50.
1000 to 3500 nM

---

Quick note: these are IC50 numbers for system: hemolysin alpha from Staphylococcus aureus (Staphylococcus aureus)

Enter measured IC50, system hemolysin alpha from Staphylococcus aureus (Staphylococcus aureus), for the compound shown: `Cc1cc2[nH]c(=O)c(=O)[nH]c2cc1S(=O)(=O)Nc1cc(C)c(-c2ccncc2)c(C)c1`
0.1 to 1 µM

Enter measured IC50, system hemolysin alpha from Staphylococcus aureus (Staphylococcus aureus), for the compound shown: `Cc1cc2[nH]c(=O)c(=O)[nH]c2cc1S(=O)(=O)Nc1ccc(-c2c(C)cccc2C)cc1`
0.1 to 1 µM

Enter measured IC50, system hemolysin alpha from Staphylococcus aureus (Staphylococcus aureus), for the compound shown: `Cc1cc2[nH]c(=O)c(=O)[nH]c2cc1S(=O)(=O)Nc1cc(C)c(-c2ccsc2)c(C)c1`
0.03 to 0.1 µM

---

# study_system: hemolysin alpha from Staphylococcus aureus (Staphylococcus aureus)
# measurement_description: cell-based
pIC50: −log10 of the molar value.
measurement_kind: pIC50

Below are worked cases with known answers.
>  <smi>
Cc1cc2[nH]c(=O)c(=O)[nH]c2cc1S(=O)(=O)Nc1ccc(N2CCCC2)cc1

>  <pIC50>
6.00 to 7.00

$$$$
>  <smi>
Cc1cc2[nH]c(=O)c(=O)[nH]c2cc1S(=O)(=O)Nc1ccc(-c2ccoc2)c(Cl)c1

>  <pIC50>
> 7.52

$$$$
>  <smi>
Cc1cc2[nH]c(=O)c(=O)[nH]c2cc1S(=O)(=O)Nc1cc(C)c(-c2ccccc2)c(C)c1

>  <pIC50>
6.00 to 7.00

$$$$

Consider the compound `Cc1cc2[nH]c(=O)c(=O)[nH]c2cc1S(=O)(=O)Nc1ccc(C(F)(F)F)c(Cl)c1` . State its measured pIC50.
7.00 to 7.52

---

IC50 values, listed per item
# study_system: hemolysin alpha from Staphylococcus aureus (Staphylococcus aureus)

Below are worked cases with known answers.
>  <smi>
CC(C)(C)c1ccc(NS(=O)(=O)c2cc3[nH]c(=O)c(=O)[nH]c3cc2Cl)cc1

>  <IC50>
100 to 1000 nM

$$$$
>  <smi>
Cc1cc(NS(=O)(=O)c2cc3[nH]c(=O)c(=O)[nH]c3cc2C)ccc1Br

>  <IC50>
100 to 1000 nM

$$$$
>  <smi>
O=c1[nH]c2cc(Cl)c(S(=O)(=O)Nc3ccc(-c4ccccc4F)c(Cl)c3)cc2[nH]c1=O

>  <IC50>
< 30 nM

$$$$
>  <smi>
O=c1[nH]c2cc(F)c(S(=O)(=O)Nc3ccc(-c4ccc(F)cc4)c(Cl)c3)cc2[nH]c1=O

>  <IC50>
< 30 nM

$$$$
>  <smi>
Cc1cc2[nH]c(=O)c(=O)[nH]c2cc1S(=O)(=O)Nc1ccc(C2CC2)cc1

>  <IC50>
30 to 100 nM

$$$$

Enter measured IC50, system hemolysin alpha from Staphylococcus aureus (Staphylococcus aureus), for the compound shown: `Cc1ccc(-c2c(C)cc(NS(=O)(=O)c3cc4[nH]c(=O)c(=O)[nH]c4cc3C)cc2C)s1`
30 to 100 nM

Enter measured IC50, system hemolysin alpha from Staphylococcus aureus (Staphylococcus aureus), for the compound shown: `Cc1cc2[nH]c(=O)c(=O)[nH]c2c(F)c1S(=O)(=O)Nc1ccc(-c2cccc(Cl)c2)c(Cl)c1`
30 to 100 nM

Enter measured IC50, system hemolysin alpha from Staphylococcus aureus (Staphylococcus aureus), for the compound shown: `CCCc1ccc(NS(=O)(=O)c2cc3[nH]c(=O)c(=O)[nH]c3cc2Cl)cc1`
30 to 100 nM

Enter measured IC50, system hemolysin alpha from Staphylococcus aureus (Staphylococcus aureus), for the compound shown: `CCOC(=O)c1ccccc1-c1ccc(NS(=O)(=O)c2cc3[nH]c(=O)c(=O)[nH]c3cc2C)cc1`
100 to 1000 nM

Enter measured IC50, system hemolysin alpha from Staphylococcus aureus (Staphylococcus aureus), for the compound shown: `Cc1ccc(NS(=O)(=O)c2cc3[nH]c(=O)c(=O)[nH]c3cc2C)cc1Cl`
1000 to 3500 nM

Enter measured IC50, system hemolysin alpha from Staphylococcus aureus (Staphylococcus aureus), for the compound shown: `O=c1[nH]c2cc(Cl)c(S(=O)(=O)Nc3ccc(-c4cccc(Cl)c4)c(Cl)c3)cc2[nH]c1=O`
< 30 nM

Enter measured IC50, system hemolysin alpha from Staphylococcus aureus (Staphylococcus aureus), for the compound shown: `Cc1cc2[nH]c(=O)c(=O)[nH]c2cc1S(=O)(=O)Nc1cc(C)c(-c2cccc(N(C)C)c2)c(C)c1`
30 to 100 nM

Enter measured IC50, system hemolysin alpha from Staphylococcus aureus (Staphylococcus aureus), for the compound shown: `Cc1cc(NS(=O)(=O)c2cc3[nH]c(=O)c(=O)[nH]c3cc2Cl)ccc1Br`
100 to 1000 nM

Enter measured IC50, system hemolysin alpha from Staphylococcus aureus (Staphylococcus aureus), for the compound shown: `Cc1ccc(NS(=O)(=O)c2cc3[nH]c(=O)c(=O)[nH]c3cc2C)cc1`
100 to 1000 nM

---

pEC50 values, listed per item
# study_system: S. aureus Alpha hemolysin (Staphylococcus aureus, UniProt P09616)
# Sequence (P09616 27-319 limits assumed): as above
# measurement_description: cell-based
# recorded_conditions: A549-LDH Assay activity
pEC50: −log10 of the molar value.

Below are worked cases with known answers.
>  <smi>
[2H]C([2H])([2H])c1cc2[nH]c(=O)c(=O)[nH]c2cc1S(=O)(=O)Nc1ccc(-c2ccc(F)cc2)c(Cl)c1

>  <pEC50>
7.00 to 7.52

$$$$
>  <smi>
Cc1cc2[nH]c(=O)c(=O)[nH]c2cc1S(=O)(=O)Nc1ccc(-c2ccc3c(C)c[nH]c3c2)c(Cl)c1

>  <pEC50>
6.00 to 7.00

$$$$
>  <smi>
Cc1ccc(-c2ccc(NS(=O)(=O)c3cc4[nH]c(=O)c(=O)[nH]c4cc3C)cc2Cl)o1

>  <pEC50>
5.22 to 6.00

$$$$

Consider the compound `Cc1cc2[nH]c(=O)c(=O)[nH]c2cc1S(=O)(=O)Nc1ccc2c(c1)CCC2` . State its measured pEC50.
7.00 to 7.52

Consider the compound `Cc1cc(NS(=O)(=O)c2cc3[nH]c(=O)c(=O)[nH]c3cc2C)ccc1-c1ccccc1` . State its measured pEC50.
> 7.52

Consider the compound `Cc1cc2[nH]c(=O)c(=O)[nH]c2cc1S(=O)(=O)Nc1ccc(-c2ccc3nccn3c2)c(Cl)c1` . State its measured pEC50.
6.00 to 7.00

Consider the compound `Cc1cc2[nH]c(=O)c(=O)[nH]c2cc1S(=O)(=O)Nc1ccc(-c2ccc(C(F)(F)F)nc2)c(Cl)c1` . State its measured pEC50.
5.22 to 6.00

Consider the compound `Cc1cc2[nH]c(=O)c(=O)[nH]c2cc1S(=O)(=O)Nc1ccc(-c2ccc3cc[nH]c3c2)c(C(F)(F)F)c1` . State its measured pEC50.
7.00 to 7.52

Consider the compound `Cc1cc(NS(=O)(=O)c2cc3[nH]c(=O)c(=O)[nH]c3cc2F)cc(C)c1-c1ccccc1` . State its measured pEC50.
6.00 to 7.00

Consider the compound `Cc1cc2[nH]c(=O)c(=O)[nH]c2cc1S(=O)(=O)Nc1ccc(-c2ccnc(Cl)c2)c(Cl)c1` . State its measured pEC50.
7.00 to 7.52

Consider the compound `COc1ccc(-c2ncc(NS(=O)(=O)c3cc4[nH]c(=O)c(=O)[nH]c4cc3C)cc2Cl)cc1F` . State its measured pEC50.
6.00 to 7.00

Consider the compound `Cc1cc2[nH]c(=O)c(=O)[nH]c2cc1S(=O)(=O)Nc1ccc(-c2cn(C)c3ccccc23)c(Cl)c1` . State its measured pEC50.
5.22 to 6.00

Consider the compound `CC(C)c1ccc(NS(=O)(=O)c2cc3[nH]c(=O)c(=O)[nH]c3cc2Cl)cc1` . State its measured pEC50.
6.00 to 7.00

---

# study_system: UniProt:P09616
# measurement_description: cell-based
pEC50: −log10 of the molar value.
measurement_kind: pEC50

Consider the compound `Cc1cc2[nH]c(=O)c(=O)[nH]c2cc1S(=O)(=O)Nc1ccc(-n2ccnc2)cc1` . State its measured pEC50.
5.46 to 6.00

Consider the compound `Cc1cc2[nH]c(=O)c(=O)[nH]c2cc1S(=O)(=O)Nc1ccc(-c2ccc3nn[nH]c3c2)c(Cl)c1` . State its measured pEC50.
> 7.52

Consider the compound `COc1cc2[nH]c(=O)c(=O)[nH]c2cc1S(=O)(=O)Nc1ccc(C(F)(F)F)cc1` . State its measured pEC50.
5.46 to 6.00

Consider the compound `CC(=O)Nc1cc(-c2ccc(NS(=O)(=O)c3cc4[nH]c(=O)c(=O)[nH]c4cc3C)cc2C(F)(F)F)ccc1O` . State its measured pEC50.
7.00 to 7.52

Consider the compound `Cc1cc2[nH]c(=O)c(=O)[nH]c2cc1S(=O)(=O)Nc1ccc(-c2cccc(N3CCC3)c2)c(Cl)c1` . State its measured pEC50.
> 7.52

Consider the compound `Cc1cc2[nH]c(=O)c(=O)[nH]c2cc1S(=O)(=O)Nc1ccc(-c2ccc3cccnc3c2)c(C(F)(F)F)c1` . State its measured pEC50.
> 7.52

Consider the compound `O=c1[nH]c2cc(C3CC3)c(S(=O)(=O)Nc3cnc(-c4ccc(F)cc4)c(Cl)c3)cc2[nH]c1=O` . State its measured pEC50.
6.00 to 7.00

Consider the compound `CC(=O)c1cccc(-c2ccc(NS(=O)(=O)c3cc4[nH]c(=O)c(=O)[nH]c4cc3C)cc2Cl)c1` . State its measured pEC50.
> 7.52

Consider the compound O=c1[nH]c2ccc(S(=O)(=O)Nc3ccc(C4CC4)cc3)cc2[nH]c1=O [drawing 470 (R^2 = H), reference compound] . State its measured pEC50.
6.37

Consider the compound `Cc1cc2[nH]c(=O)c(=O)[nH]c2cc1S(=O)(=O)Nc1ccc(-c2ccc3c(c2)NC(=O)CO3)c(Cl)c1` . State its measured pEC50.
> 7.52

Consider the compound `Cc1cc2[nH]c(=O)c(=O)[nH]c2cc1S(=O)(=O)Nc1ccc(-c2ccc(F)cc2)c(OC(F)(F)F)c1` . State its measured pEC50.
6.00 to 7.00

Consider the compound `Cc1cc2[nH]c(=O)c(=O)[nH]c2cc1S(=O)(=O)Nc1ccc2cccnc2c1` . State its measured pEC50.
6.00 to 7.00

Consider the compound `Cc1cc2[nH]c(=O)c(=O)[nH]c2cc1S(=O)(=O)Nc1ccc(-c2ccc3cccnc3c2)c(Cl)c1` . State its measured pEC50.
> 7.52
